assayTarget: PDE9A (Homo sapiens)
Sequence (O76083 whole entry): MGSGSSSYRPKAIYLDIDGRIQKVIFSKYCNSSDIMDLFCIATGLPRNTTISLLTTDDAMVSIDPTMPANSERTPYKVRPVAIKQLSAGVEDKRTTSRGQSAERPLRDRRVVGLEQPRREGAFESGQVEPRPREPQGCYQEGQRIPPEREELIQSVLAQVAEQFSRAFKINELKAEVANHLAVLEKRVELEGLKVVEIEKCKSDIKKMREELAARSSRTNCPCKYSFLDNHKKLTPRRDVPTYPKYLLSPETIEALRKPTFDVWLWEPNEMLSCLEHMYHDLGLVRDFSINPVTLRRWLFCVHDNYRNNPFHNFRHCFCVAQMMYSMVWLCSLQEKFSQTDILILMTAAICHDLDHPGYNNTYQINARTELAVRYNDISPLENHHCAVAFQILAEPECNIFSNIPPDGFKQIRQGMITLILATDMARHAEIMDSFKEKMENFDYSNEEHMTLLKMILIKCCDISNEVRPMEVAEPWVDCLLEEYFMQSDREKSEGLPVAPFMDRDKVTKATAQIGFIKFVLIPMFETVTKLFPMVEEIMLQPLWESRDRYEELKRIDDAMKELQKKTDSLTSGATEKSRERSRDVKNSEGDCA
measurementProtocol: PDE enzymatic activity assay (SPA), PDE9A
experimentalSetup: cGMP substrate; given as ranges; for illustrative purposes
Description: The PDE enzymatic activity assays were run as SPA, in general according to the protocol of the manufacturer (Amersham Biosciences, product number: TRKQ 7100). […] The assays were run in 384-well format. […] In case activity of PDE1C was analysed, 50 nM Calmodulin and 3 mM CaCl2 were included in the assay buffer. In case PDE9 activity was analyzed, the reaction was stopped by applying a PDE9 specific inhibitor (e.g. compounds according to WO2004/099210). […]
pIC50: −log10 of the molar value.
valueKind: pIC50

### Prompt Give pIC50 for this entry on PDE9A (Homo sapiens): O=C(O)c1cccc(-n2ncc3c(=O)[nH]c(Cc4ccccc4OC(F)(F)F)nc32)c1
### Response 6.30 to 8.00

### Prompt Fill in pIC50 for O=c1[nH]c(Cc2ccccc2OC(F)(F)F)nc2c1cnn2-c1ccc(F)cc1O tested with PDE9A (Homo sapiens).
### Response < 6.30

### Prompt Write pIC50 of O=c1[nH]c(Cc2ccccc2OC(F)(F)F)nc2c1cnn2-c1cc(F)ccc1Cl ; system used: PDE9A (Homo sapiens)
### Response 6.30 to 8.00

### Prompt Using PDE9A (Homo sapiens) as the test system, report measured pIC50 of O=c1[nH]c(Cc2ccccc2OC(F)(F)F)nc2c1cnn2-c1ccc(F)cc1Cl .
### Response 6.30 to 8.00

### Prompt Quote PDE9A (Homo sapiens) pIC50 for entry COc1ccc(Cl)cc1-n1ncc2c(=O)[nH]c(Cc3ccccc3OC(F)(F)F)nc21 .
### Response 6.30 to 8.00

### Prompt GET pIC50 | system: PDE9A (Homo sapiens) | item: O=c1[nH]c(Cc2ccccc2OC(F)(F)F)nc2c1cnn2-c1cc(Cl)ccc1Br
### Response 6.30 to 8.00

### Prompt Write pIC50 of O=c1[nH]c(Cc2ccccc2OC(F)(F)F)nc2c1cnn2-c1ncc(F)cc1F ; system used: PDE9A (Homo sapiens)
### Response 6.30 to 8.00

### Prompt Give pIC50; test system PDE9A (Homo sapiens); compound Cc1cc(F)c(F)cc1-n1ncc2c(=O)[nH]c(Cc3ccccc3OC(F)(F)F)nc21
### Response 6.30 to 8.00

### Prompt Answer briefly: pIC50 recorded on PDE9A (Homo sapiens) for CC(=O)Nc1cccc(-n2ncc3c(=O)[nH]c(Cc4ccccc4OC(F)(F)F)nc32)c1
### Response 6.30 to 8.00

### Prompt Provide measured pIC50 on PDE9A (Homo sapiens) for O=c1[nH]c(Cc2ccccc2OC(F)(F)F)nc2c1cnn2-c1cc(O)ccc1Cl please.
### Response 6.30 to 8.00

### Prompt Name the recorded pIC50 of O=C(c1cccc(-n2ncc3c(=O)[nH]c(Cc4ccccc4OC(F)(F)F)nc32)c1)N1CCOCC1 , assay system PDE9A (Homo sapiens).
### Response < 6.30

### Prompt Look up and report measured pIC50 (PDE9A (Homo sapiens)) for the following compound: Cc1cccc(-n2ncc3c(=O)[nH]c(Cc4ccccc4OC(F)(F)F)nc32)c1C
### Response 6.30 to 8.00

### Prompt Write pIC50 of O=C(c1ccc(Cl)c(-n2ncc3c(=O)[nH]c(Cc4ccccc4OC(F)(F)F)nc32)c1)N1CCOCC1 ; system used: PDE9A (Homo sapiens)
### Response 6.30 to 8.00

### Prompt State, for PDE9A (Homo sapiens), measured pIC50 of the compound listed here: Cc1cc(F)ccc1-n1ncc2c(=O)[nH]c(Cc3ccccc3OC(F)(F)F)nc21
### Response 6.30 to 8.00

### Prompt Give pIC50; test system PDE9A (Homo sapiens); compound CN(C)C(=O)c1ccc(Cl)c(-n2ncc3c(=O)[nH]c(Cc4ccccc4OC(F)(F)F)nc32)c1
### Response 6.30 to 8.00

### Prompt Provide pIC50, recorded with PDE9A (Homo sapiens), of Cc1ccc(Cl)cc1-n1ncc2c(=O)[nH]c(Cc3ccccc3OC(F)(F)F)nc21
### Response 6.30 to 8.00

### Prompt Provide pIC50, tested on PDE9A (Homo sapiens), for O=c1[nH]c(Cc2ccccc2OC(F)(F)F)nc2c1cnn2-c1c(Cl)cccc1Cl .
### Response < 6.30

### Prompt Quote pIC50 with test system PDE9A (Homo sapiens) for O=c1[nH]c(Cc2ccccc2OC(F)(F)F)nc2c1cnn2-c1cnccc1C(F)(F)F
### Response 6.30 to 8.00

Sourced from patent US8648085B2
